# STUDY SYSTEM: T1, Cynomolgus monkey PDGF-BB (cynomolgus monkey, UniProt P01127 82-190 (human entry), limits assumed)
# T1 chain: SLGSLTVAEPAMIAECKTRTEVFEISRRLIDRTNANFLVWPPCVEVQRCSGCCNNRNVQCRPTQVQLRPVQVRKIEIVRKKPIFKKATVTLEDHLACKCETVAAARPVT
# ASSAY METHOD TEXT: cell-based or functional assay
VALUE TYPE: cynoPDGF-BB NIH-3T3 Proliferation IC50 (nM)
Write the value in nM as a bare number.

BINDER	cynoPDGF-BB NIH-3T3 Proliferation IC50 / nM
CL-33587-IgG (antibody, V domains shown) VH: EVTLRESGPALVKPTQTLTLTCTFSGFSLSTYGMGVGWIRQPPGKALEWLANIWWDDDKYYNPSLKNRLTISKDTSKNQVVLTMTNMDPVDTATYYCARIQSMWTRYDFDYWGQGTMVTVSS VL: EIVLTQSPGTLSLSPGERATLSCERSSGDIGDSYVSWYQQKPGQAPRLVIYADDQRPSGIPDRFSGSGSGTDFTLTISRLEPEDFAVYYCQSYDINIDIVFGGGTKVEIK	0.029

Moving on to another binder below.
Consider the binder CL-33767-IgG (antibody, V domains shown) VH: EVTLRESGPALVKPTQTLTLTCTFSGFSLSTYGMGVGWIRQPPGKALEWLANIWWDDDKYYNPSLKNRLTISKDTSKNQVVLTMTNMDPVDTATYYCARIESIGPKYSFDYWGQGTMVTVSS VL: EIVLTQSPGTLSLSPGERATLSCRASSGSIWYSFVSWYQQKPGQAPRLLIYADDQRASGIPDRFSGSGSGTDFTLTISRLEPEDFAVYYCQSYGINIDVVFGGGTKVEIK and give its measured cynoPDGF-BB NIH-3T3 Proliferation IC50.
0.042
